Molecular target: Furin (108-574-Tev-Flag-His) enzyme (Homo sapiens)
Construct: Furin (108-574-Tev-Flag-His) enzyme was expressed and purified from CHO cells; TEV cleavage site (C); FLAG (C); His (C); made in house; host or cells: CHO cells
Sequence (P09958 108-574): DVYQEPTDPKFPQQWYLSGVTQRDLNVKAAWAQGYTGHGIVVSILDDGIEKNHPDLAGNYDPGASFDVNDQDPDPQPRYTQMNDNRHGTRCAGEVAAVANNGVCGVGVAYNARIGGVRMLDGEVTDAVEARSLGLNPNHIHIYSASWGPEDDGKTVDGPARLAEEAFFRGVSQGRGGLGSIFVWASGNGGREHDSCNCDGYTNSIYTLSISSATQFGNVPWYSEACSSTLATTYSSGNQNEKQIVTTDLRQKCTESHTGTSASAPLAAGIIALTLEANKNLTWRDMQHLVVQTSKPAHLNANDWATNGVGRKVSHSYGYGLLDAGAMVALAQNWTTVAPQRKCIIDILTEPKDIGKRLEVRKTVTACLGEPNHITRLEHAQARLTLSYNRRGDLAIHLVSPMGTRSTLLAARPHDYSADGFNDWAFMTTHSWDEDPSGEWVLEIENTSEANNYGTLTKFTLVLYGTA
Experiment: Furin enzyme assay
Type: biochemical
Counter-ions that a name gives are not always drawn.
In this section, each of the compounds is paired with its reported furin enzyme pIC50.
# answer = number (no unit)

Exam item: Short answer please: furin enzyme pIC50, Furin (108-574-Tev-Flag-His) enzyme (Homo sapiens), entry COC(=O)NCC1CCN(Cc2cc(Oc3cnc(N4CCNCC4)nc3)nc(-c3cc(Cl)cc(Cl)c3)c2)CC1 [Example 49, hydrochloride]
Marked response: 9.1

Exam item: Short answer please: furin enzyme pIC50, Furin (108-574-Tev-Flag-His) enzyme (Homo sapiens), entry CN1CCCN(c2ncc(Oc3cc(CN4CCC(OCC(=O)O)CC4)cc(-c4cc(Cl)cc(Cl)c4)n3)cn2)CC1
Marked response: 8.8

Exam item: Short answer please: furin enzyme pIC50, Furin (108-574-Tev-Flag-His) enzyme (Homo sapiens), entry CC(=O)NCC1CCN(Cc2cc(Oc3ccc(N4CCN(CCC(C)C(=O)O)CC4)nc3)nc(-c3cc(Cl)cc(Cl)c3)c2)CC1 (stereo not shown)
Marked response: 9.2

Exam item: Short answer please: furin enzyme pIC50, Furin (108-574-Tev-Flag-His) enzyme (Homo sapiens), entry CN1CCN(c2ncc(Oc3cc(CN4CCC(CC(=O)O)CC4)cc(-c4cc(Cl)cc(Cl)c4)c3)cn2)CC1
Marked response: 9.2

Exam item: Short answer please: furin enzyme pIC50, Furin (108-574-Tev-Flag-His) enzyme (Homo sapiens), entry CN1CCCN(c2ccc(Oc3cc(CN4CCC(CC(=O)O)CC4)cc(-c4cc(Cl)cc(Cl)c4)n3)cn2)CC1
Marked response: 8.8

Exam item: Short answer please: furin enzyme pIC50, Furin (108-574-Tev-Flag-His) enzyme (Homo sapiens), entry O=C(O)CCN1CCN(c2ccc(Oc3cc(CN4CCC(CNC(=O)C5CC5)CC4)cc(-c4cc(Cl)cc(Cl)c4)n3)cn2)CC1
Marked response: 9.2

Exam item: Short answer please: furin enzyme pIC50, Furin (108-574-Tev-Flag-His) enzyme (Homo sapiens), entry CC(=O)NCC1CCN(Cc2cc(Oc3cnc(N4CCN(C(C)CO)CC4)cn3)nc(-c3cc(Cl)cc(Cl)c3)c2)CC1 (stereo not shown)
Marked response: 9.2
